Cited source for all entries: patent US11028067B2

# Test system: MDA-MB-468
# assay_details: Cancer cell viability assay (MTT), MDA-MB-468
# Type: cell-based
# settings: 72 hrs, 10% FBS media
quantity_kind: pIC50
Answers are plain numbers, as −log10 of the molar value.

Reported pIC50 ( COc1ccc([N+](=O)[O-])c([S+]([O-])c2ccccn2)n1 (stereo not shown) ) = 6.02

----------
# Test system: U-87 MG
# assay_details: Cancer cell viability assay (MTT), U-87 MG
# Type: cell-based
# settings: Homo sapiens, U-87 MG, 72 hrs, 10% FBS media
quantity_kind: IC50 (µM)
Give bare numbers, in µM.

Reported IC50 ( COc1ccc([N+](=O)[O-])c(S(=O)(=O)c2ccccn2)n1 [Example 1] ) = 8.2

----------
# System: MDA-MB-231
# assay_details: Cancer cell viability assay (MTT), MDA-MB-231
# Format: cell-based
# settings: Homo sapiens, MDA-MB-231, 72 hrs, 10% FBS media
quantity_kind: IC50 (nM)
Numbers only, in nM.

IC50 value, target or system MDA-MB-231, for COc1ccc([N+](=O)[O-])c(S(=O)(=O)c2ccccn2)n1 : 2970

----------
# Tested on: MDA-MB-468
# assay_details: Cancer cell viability assay (MTT), MDA-MB-468
# Assay type: cell-based
# settings: Homo sapiens, MDA-MB-468, 72 hrs, 10% FBS media
quantity_kind: IC50 (µM)
Numbers only, in µM.

Reported IC50 ( COc1ccc([N+](=O)[O-])c(S(=O)(=O)c2ccccn2)n1 ) = 4.34

----------
# test_system: recombinant thioredoxin reductase 1 (TrxR1) (Homo sapiens (Human), UniProt Q16881)
# Sequence (Q16881 151-649): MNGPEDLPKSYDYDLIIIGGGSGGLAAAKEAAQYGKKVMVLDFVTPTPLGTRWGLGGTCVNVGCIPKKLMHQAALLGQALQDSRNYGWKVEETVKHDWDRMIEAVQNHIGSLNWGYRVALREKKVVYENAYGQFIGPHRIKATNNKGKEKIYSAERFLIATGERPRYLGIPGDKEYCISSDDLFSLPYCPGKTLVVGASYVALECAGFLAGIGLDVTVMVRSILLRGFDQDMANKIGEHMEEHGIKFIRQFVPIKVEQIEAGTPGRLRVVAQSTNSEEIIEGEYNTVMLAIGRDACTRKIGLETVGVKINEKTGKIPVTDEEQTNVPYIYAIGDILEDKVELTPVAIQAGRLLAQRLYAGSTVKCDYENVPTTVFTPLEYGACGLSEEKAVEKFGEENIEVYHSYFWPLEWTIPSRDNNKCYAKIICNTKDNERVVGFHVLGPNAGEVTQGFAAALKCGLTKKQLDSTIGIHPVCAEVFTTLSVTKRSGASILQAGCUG
# assay_details: Inhibition of recombinant TrxR1 (DTNB assay)
# settings: 30 nM TrxR1, 250 μM NADPH, 15 minutes incubation, 2 mM DTNB; read-out: TrxR inhibition
# Method: Small molecule inhibition of recombinant thioredoxin reductase 1 (TrxR1) and gluthathione reductase (GR) was examined in 96-well plate format. 30 nM TrxR1 was incubated in the presence of 250 μM NADPH, 0.1 mg/ml BSA, and various concentrations of the compounds (1% DMSO final) in 50 mM Tris (pH 7.5) and 2 mM EDTA buffer for 15 minutes. […] Percent activity was determined using DMSO vehicle and no TrxR1 (blank) controls. […] Percent activity was determined using DMSO vehicle and no GR (blank) controls.
quantity_kind: pIC50
Numbers only, as −log10 of the molar value.

Guide cases for pIC50, answers given:
O=[N+]([O-])c1ccc(Cl)nc1S(=O)(=O)c1ccccn1 [Example 2] | 7.24
COc1ccc([N+](=O)[O-])c(S(=O)(=O)c2ncc[nH]2)n1 [Example 6] | 8.40
COc1ccc([N+](=O)[O-])c([S+]([O-])c2ccccn2)n1 (centres unmarked) [Example 8] | 8.26

Dear colleague, could you please provide pIC50 for the compounds listed below?
1. COc1ccc([N+](=O)[O-])c(S(=O)(=O)c2nc(C)cs2)n1 [Example 7]
2. COc1ccc([N+](=O)[O-])c(S(=O)(=O)c2ccccn2)n1 [Example 1]
3. CN(C)c1ccc([N+](=O)[O-])c(S(=O)(=O)c2ccccn2)n1 [Example 3]
4. COc1ccc([N+](=O)[O-])c(S(=O)(=O)c2ncccn2)n1 [Example 5]
5. COc1ccc([N+](=O)[O-])c(S(=O)(=O)c2ccncc2)n1 [Example 4]

result:
1. 8.16
2. 7.57
3. 6.25
4. 7.97
5. 9.07

----------
# test_system: gluthathione reductase (GR) (Homo sapiens (Human), UniProt P00390)
# Sequence (P00390 44-522): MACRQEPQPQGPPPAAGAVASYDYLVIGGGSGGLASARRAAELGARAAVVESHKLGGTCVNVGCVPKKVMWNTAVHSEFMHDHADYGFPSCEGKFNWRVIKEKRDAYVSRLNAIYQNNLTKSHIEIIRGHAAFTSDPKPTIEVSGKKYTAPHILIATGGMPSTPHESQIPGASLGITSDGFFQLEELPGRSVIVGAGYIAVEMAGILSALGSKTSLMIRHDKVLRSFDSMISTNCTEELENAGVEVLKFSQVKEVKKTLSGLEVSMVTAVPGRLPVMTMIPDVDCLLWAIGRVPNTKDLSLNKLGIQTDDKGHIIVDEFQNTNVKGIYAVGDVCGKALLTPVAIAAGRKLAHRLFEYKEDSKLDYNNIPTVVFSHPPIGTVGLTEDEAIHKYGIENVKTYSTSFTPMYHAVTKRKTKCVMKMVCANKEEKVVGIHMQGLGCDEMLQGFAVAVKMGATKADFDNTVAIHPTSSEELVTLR
# assay_details: Inhibition of recombinant GR (GSSG assay)
# settings: 2 nM GR, 250 μM NADPH, 15 minutes incubation, 1 mM GSSG
quantity_kind: IC50 (µM)
Numbers only, in µM.

COc1ccc([N+](=O)[O-])c(S(=O)(=O)c2ccncc2)n1 | 11.2
O=[N+]([O-])c1ccc(Cl)nc1S(=O)(=O)c1ccccn1 | 9.89

Reported IC50 ( COc1ccc([N+](=O)[O-])c(S(=O)(=O)c2ccccn2)n1 ) = 64.2

----------
Task for the reader: assign each of the following molecules its reported IC50.
# Tested on: FaDu cells
# assay_details: Head and neck cancer cell viability assay (Cell-Quanti Blue)
# Assay type: cell-based
# settings: Homo sapiens, 72 hrs, 10% FBS media containing 25 nM selenite
# Method: FaDu cells were plated 2000 cells/well in 96-well black optical plates in the presence of 10% FBS media containing 25 nM selenite. The following day cells were treated with various concentrations of the compound of Example 1 (0.1% DMSO final) and incubated for 72 hrs. […] Fluorescence was read ex: 530 nm/em: 590 nm, and percent of viability was determined using DMSO vehicle and no cell (blank) controls.

Guide cases for IC50, answers given:
COc1ccc([N+](=O)[O-])c(S(=O)(=O)c2nc(C)cs2)n1 | 45.7 µM
O=[N+]([O-])c1ccc(Cl)nc1S(=O)(=O)c1ccccn1 | 0.61 µM
COc1ccc([N+](=O)[O-])c(S(=O)(=O)c2ccccn2)n1 | 1.61 µM

Now examine the next entry.
Reported IC50 ( CN(C)c1ccc([N+](=O)[O-])c(S(=O)(=O)c2ccccn2)n1 ) = 2.89 µM
